Tested on: Hepatitis B virus
Assay: Antiviral activity against HBV infected in human HepG2(2.2.15) cells assessed as inhibition of HBV DNA replication
Format: functional, organism-based
Settings: Hepatitis B virus, HepG2 2.2.15; read-out: IC50
Below, each of the compounds is paired with its reported IC50 value.
Hi! Could you send only the number? It should be in µM, unit omitted.

Task: Query: IC50; subject: Nc1ccn([C@@H]2CS[C@H](CO)O2)c(=O)n1 [LAMIVUDINE]
Result: 240

Task: Would you mind telling me what IC50 value was observed for COc1cc2nc3c(cc2c(CN2CCCC2)c1O)CSc1ccc(F)cc1-3 ?
Result: 47.7

Task: Tell me the measured IC50 of COc1cc2nc3c(cc2c(CN2CCOCC2)c1O)CSc1ccc(C)cc1-3 , please.
Result: 14.7

Task: Could you tell me which IC50 is on file for CCN(CC)Cc1c(O)c(OC)cc2nc3c(cc12)CSc1ccc(C)cc1-3 ?
Result: 2

Task: // returns reported IC50 for input COc1cc2nc3c(cc2c(CN2CCCCC2)c1O)CSc1c(C)cc(C)cc1-3
Result: 4.2

Task: For COc1cc2nc3c(cc2c(CN2CCN(C)CC2)c1O)CSc1ccc(C)cc1-3 , what is its reported IC50?
Result: 107

Task: Given the compound COc1cc2nc3c(cc2c(CN2CCCC2)c1O)CSc1cc(F)ccc1-3 , what is its reported IC50?
Result: 173

Task: # IC50 lookup, item CCN(CC)Cc1c(O)c(OC)cc2nc3c(cc12)CSc1cc(F)ccc1-3
Result: 2.4

Task: Reported IC50, compound COc1cc2nc3c(cc2c(CN2CCCC2)c1O)CSc1ccc(C)cc1-3 : ____
Result: 56.3
